Hey, just so you know, these numbers are from patent US20220185900A1.

pIC50: recorded values
target: T1, hRET.mmh (human, UniProt P07949 29-635, biotinylated in the ELISA of Example 4 (biot-hRET.mmh); not in the SPR of Example 3); assay: competition sandwich ELISA: 1 nM biot-hRET.mmh + antibody, plate-coated GDNF/GFRα1 co-complex
T1 construct: also called biot-hRET.mmh; soluble monomeric human RET
The read-out pIC50 is expressed as -log10 of concentration in moles per litre.

H4H8066P (antibody, human IgG4, V domains shown, human IgG4 Fc (H4H prefix)) VH: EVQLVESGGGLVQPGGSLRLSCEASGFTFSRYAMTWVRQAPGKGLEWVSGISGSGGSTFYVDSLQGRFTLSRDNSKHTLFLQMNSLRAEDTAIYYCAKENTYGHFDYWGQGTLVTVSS VL: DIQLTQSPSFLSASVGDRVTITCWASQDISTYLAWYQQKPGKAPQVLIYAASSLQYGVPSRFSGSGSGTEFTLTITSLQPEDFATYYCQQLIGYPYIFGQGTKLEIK ... 9.39

// next item, pIC50 requested
Query block: Give me measured pIC50, please, for this binder: H2M7086N (antibody, mouse IgG2, V domains shown, human variable domains with mouse IgG2 Fc (H2M prefix)) VH: QVQLVESGGGVVQPGRSLRLSCVVSGFTFSNYGMHWVRQGPGRGLEWLALIWYDGSDKYYAESVRGRFTISRDNSKNTVYLQMNSLRAEDTAMYYCTRDRIFDYWGQGTLVTVSS VL: AIQMTQSPSSLSASVGDRVTITCRASQDIRNDLGWYQHNPGKAPNLLIYAASTLQIGVPSRFRGSGSGTDFTLTISSLQPEDFATYYCLQDFDYPLSFGGGTKVEIR
Result block: 9.48
